Just for reference, ChEMBL document CHEMBL3779768 is where these values come from.

- MEASURED_TARGET: NAD-dependent protein deacetylase sirtuin-3, mitochondrial (Homo sapiens)
- Sequence (Q9NTG7 whole entry): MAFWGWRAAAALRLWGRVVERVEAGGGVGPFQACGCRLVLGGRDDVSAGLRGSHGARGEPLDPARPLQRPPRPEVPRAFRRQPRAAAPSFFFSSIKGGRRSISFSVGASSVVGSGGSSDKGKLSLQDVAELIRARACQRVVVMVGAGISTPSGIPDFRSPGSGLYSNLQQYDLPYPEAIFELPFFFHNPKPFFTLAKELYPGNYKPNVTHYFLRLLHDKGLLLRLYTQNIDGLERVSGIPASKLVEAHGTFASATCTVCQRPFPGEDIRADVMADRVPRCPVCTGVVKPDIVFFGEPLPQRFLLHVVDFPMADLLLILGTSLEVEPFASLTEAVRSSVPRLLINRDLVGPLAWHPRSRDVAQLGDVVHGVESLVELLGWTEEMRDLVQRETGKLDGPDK
- EXPERIMENT: Inhibition of human SIRT3 expressed in Escherichia coli BL21 (DE3) assessed as deacetylation using Z-Lys(Acetyl)-AMC as substrate measured after 4 hrs by fluorescence based microplate reader method in presence of 500 uM beta NAD+
QUANTITY_MEASURED: IC50

- SUBSTANCE_SMILES: "Cc1cc(C)nc(SCC(=O)Nc2ncc(Cc3cccc4ccccc34)s2)n1"
  RESULT: "> 140 µM"

----------
- MEASURED_TARGET: NAD-dependent protein deacetylase sirtuin-1 (Homo sapiens)
- Sequence (Q96EB6 whole entry, the tested form may be a part): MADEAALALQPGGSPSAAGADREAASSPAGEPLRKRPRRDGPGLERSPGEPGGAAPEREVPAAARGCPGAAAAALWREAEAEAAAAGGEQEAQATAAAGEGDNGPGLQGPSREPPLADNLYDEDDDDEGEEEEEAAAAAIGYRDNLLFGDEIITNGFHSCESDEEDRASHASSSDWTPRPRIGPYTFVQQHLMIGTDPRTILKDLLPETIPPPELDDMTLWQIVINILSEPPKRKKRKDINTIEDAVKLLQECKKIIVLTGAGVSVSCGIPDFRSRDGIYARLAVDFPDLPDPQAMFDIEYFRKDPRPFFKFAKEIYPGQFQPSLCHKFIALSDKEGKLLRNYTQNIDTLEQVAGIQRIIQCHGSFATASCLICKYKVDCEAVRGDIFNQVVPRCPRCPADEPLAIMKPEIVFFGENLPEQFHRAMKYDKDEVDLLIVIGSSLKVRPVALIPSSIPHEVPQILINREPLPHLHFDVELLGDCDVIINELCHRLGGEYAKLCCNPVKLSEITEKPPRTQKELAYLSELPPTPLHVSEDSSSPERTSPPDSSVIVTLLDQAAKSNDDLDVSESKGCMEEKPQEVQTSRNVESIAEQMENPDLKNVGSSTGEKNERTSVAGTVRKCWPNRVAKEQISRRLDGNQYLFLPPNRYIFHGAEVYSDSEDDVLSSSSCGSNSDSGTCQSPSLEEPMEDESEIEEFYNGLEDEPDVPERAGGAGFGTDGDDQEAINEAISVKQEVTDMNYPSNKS
- EXPERIMENT: Inhibition of human SIRT1 (133 to 747 amino acid residues) assessed as deacetylation using Z-Lys(Acetyl)-AMC as substrate measured after 4 hrs by fluorescence based microplate reader method in presence of 500 uM beta-NAD+

- SUBSTANCE_SMILES: "Cc1cc(C)nc(SCC(=O)Nc2ncc(Cc3cccc4ccccc34)s2)n1"
  MEASURED_TARGET: "NAD-dependent protein deacetylase sirtuin-1 (Homo sapiens)"
  IC50: "> 140 µM"

----------
- MEASURED_TARGET: NAD-dependent protein deacetylase sirtuin-2 (Homo sapiens, UniProt Q8IXJ6)
- Sequence (Q8IXJ6 whole entry): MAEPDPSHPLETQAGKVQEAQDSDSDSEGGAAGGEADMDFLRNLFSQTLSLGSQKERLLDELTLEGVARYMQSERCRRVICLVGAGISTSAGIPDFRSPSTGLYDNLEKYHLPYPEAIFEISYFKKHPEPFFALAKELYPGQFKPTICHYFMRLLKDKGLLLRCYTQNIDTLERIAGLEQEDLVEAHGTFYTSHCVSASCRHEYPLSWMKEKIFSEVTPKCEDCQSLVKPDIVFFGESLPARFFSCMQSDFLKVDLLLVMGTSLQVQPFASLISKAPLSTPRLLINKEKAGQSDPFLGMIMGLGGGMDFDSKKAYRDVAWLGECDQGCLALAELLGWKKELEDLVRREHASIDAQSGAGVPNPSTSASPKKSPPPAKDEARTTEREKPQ
- EXPERIMENT: Inhibition of recombinant His6 tagged human SIRT2 using 0.39 mM H2N-HK-[N(epsilon)-acetyl-lysine]-LM-COOH as substrate measured after 12 mins HPLC analysis in presence of 0.5 mM beta-NAD+
pIC50: −log10 of the molar value. *1 amine or outer side, *2 acyl side, *3 side chain or, on linkers, in order; H or OH if unused. Where a SMILES comes first, the peptide text is derived from it. Bridges are numbered along the chain shown (N, C = ends). [ ]: non-standard residue; d: D form. Suberoyl(Gly)2 = O=C(CCCCCCC(=O)NCC(=O)[*:2])NCC(=O)[*:1]; Lys(Thioacetyl) = CC(=S)NCCCC[C@H](N)C(=O)O; Adipoyl = O=C(CCCCC(=O)[*:2])[*:1]; Suc = O=C(CCC(=O)[*:2])[*:1]
In this section, each of the molecules is paired with its reported pIC50.

- MOLECULE: "CSCC[C@H](NC(=O)[C@@H]1CCCCNC(=O)CCC(=O)NCCCC[C@H](NC(C)=O)C(=O)N[C@@H](CCCCN)C(=O)N[C@@H](CCCCNC(C)=S)C(=O)N1)C(N)=O (Ac-KK[Lys(Thioacetyl)]KM-NH2; linker 1-4 via Suc)"
  pIC50: 8.00
- MOLECULE: "CSCC[C@H](NC(=O)[C@@H]1CCCCNC(=O)CNC(=O)CCC(=O)NCC(=O)NCCCC[C@H](NC(C)=O)C(=O)N[C@@H](CCCCN)C(=O)N[C@@H](CCCCNC(C)=S)C(=O)N1)C(N)=O"
  pIC50: 7.23
- MOLECULE: "CSCC[C@H](NC(=O)[C@@H]1CCCCNC(=O)CCCCC(=O)NCCCC[C@H](NC(C)=O)C(=O)N[C@@H](CCCCN)C(=O)N[C@@H](CCCCNC(C)=S)C(=O)N1)C(N)=O (Ac-KK[Lys(Thioacetyl)]KM-NH2; linker 1-4 via Adipoyl)"
  pIC50: 6.87
- MOLECULE: "CSCC[C@H](NC(=O)[C@@H]1CCCCNC(=O)CNC(=O)CCCCCCC(=O)NCC(=O)NCCCC[C@H](NC(C)=O)C(=O)N[C@@H](CCCCN)C(=O)N[C@@H](CCCCNC(C)=S)C(=O)N1)C(N)=O (Ac-KK[Lys(Thioacetyl)]KM-NH2; linker 1-4 via Suberoyl(Gly)2)"
  pIC50: 6.84

----------
- MEASURED_TARGET: NAD-dependent protein deacetylase sirtuin-2 (Homo sapiens)
- EXPERIMENT: Inhibition of recombinant His6 tagged human SIRT2 using 0.39 mM H2N-HK-[N(epsilon)-acetyl-lysine]-LM-COOH as substrate measured after 12 mins HPLC analysis in presence of 0.5 mM beta-NAD+
*1 amine or outer side, *2 acyl side, *3 side chain or, on linkers, in order; H or OH if unused. Where a SMILES comes first, the peptide text is derived from it. Bridges are numbered along the chain shown (N, C = ends). [ ]: non-standard residue; d: D form. Lys(Thioacetyl) = CC(=S)NCCCC[C@H](N)C(=O)O; Suberoyl = O=C(CCCCCCC(=O)[*:2])[*:1]
In this section, each of the compounds is paired with its reported IC50.
QUANTITY_MEASURED: IC50 (nM)

- COMPOUND: "CSCC[C@H](NC(=O)[C@@H]1CCCCNC(=O)CNC(=O)CCCCC(=O)NCC(=O)NCCCC[C@H](NC(C)=O)C(=O)N[C@@H](CCCCN)C(=O)N[C@@H](CCCCNC(C)=S)C(=O)N1)C(N)=O"
  QUANTITY_MEASURED: "IC50"
  UNITS: "nM"
  QUANTITATIVE_READOUT: 53.1
- COMPOUND: "CSCC[C@H](NC(=O)[C@@H]1CCCCNC(=O)CCCCCCC(=O)NCCCC[C@H](NC(C)=O)C(=O)N[C@@H](CCCCN)C(=O)N[C@@H](CCCCNC(C)=S)C(=O)N1)C(N)=O (Ac-KK[Lys(Thioacetyl)]KM-NH2; linker 1-4 via Suberoyl)"
  QUANTITY_MEASURED: "IC50"
  UNITS: "nM"
  QUANTITATIVE_READOUT: 404
- COMPOUND: "CSCC[C@H](NC(=O)[C@H](CC(C)C)NC(=O)[C@H](CCCCNC(C)=S)NC(=O)[C@H](CCCCN)NC(=O)[C@H](Cc1c[nH]cn1)NC(C)=O)C(N)=O (Ac-HK[Lys(Thioacetyl)]LM-NH2)"
  QUANTITY_MEASURED: "IC50"
  UNITS: "nM"
  QUANTITATIVE_READOUT: 332

----------
In this section, each of the molecules is paired with its reported pIC50.
- MEASURED_TARGET: NAD-dependent protein deacetylase sirtuin-3, mitochondrial (Homo sapiens)
- EXPERIMENT: Inhibition of recombinant His6 tagged human SIRT3 using 0.105 mM H2N-HK-[N(epsilon)-acetyl-lysine]-LM-COOH as substrate measured after 10 mins HPLC analysis in presence of 3.5 mM beta-NAD+
pIC50: −log10 of the molar value. *1 amine or outer side, *2 acyl side, *3 side chain or, on linkers, in order; H or OH if unused. Where a SMILES comes first, the peptide text is derived from it. Bridges are numbered along the chain shown (N, C = ends). [ ]: non-standard residue; d: D form. Suberoyl(Gly)2 = O=C(CCCCCCC(=O)NCC(=O)[*:2])NCC(=O)[*:1]; Lys(Thioacetyl) = CC(=S)NCCCC[C@H](N)C(=O)O
QUANTITY_MEASURED: pIC50

- MOLECULE: "CSCC[C@H](NC(=O)[C@@H]1CCCCNC(=O)CNC(=O)CCC(=O)NCC(=O)NCCCC[C@H](NC(C)=O)C(=O)N[C@@H](CCCCN)C(=O)N[C@@H](CCCCNC(C)=S)C(=O)N1)C(N)=O"
  QUANTITATIVE_READOUT: 6.99
- MOLECULE: "CSCC[C@H](NC(=O)[C@@H]1CCCCNC(=O)CNC(=O)CCCCC(=O)NCC(=O)NCCCC[C@H](NC(C)=O)C(=O)N[C@@H](CCCCN)C(=O)N[C@@H](CCCCNC(C)=S)C(=O)N1)C(N)=O"
  QUANTITATIVE_READOUT: 7.28
- MOLECULE: "CSCC[C@H](NC(=O)[C@@H]1CCCCNC(=O)CNC(=O)CCCCCCC(=O)NCC(=O)NCCCC[C@H](NC(C)=O)C(=O)N[C@@H](CCCCN)C(=O)N[C@@H](CCCCNC(C)=S)C(=O)N1)C(N)=O (Ac-KK[Lys(Thioacetyl)]KM-NH2; linker 1-4 via Suberoyl(Gly)2)"
  QUANTITATIVE_READOUT: 7.37
